experiment: Urinary pharmacokinetics on Day 10 after multiple doses of LED-E q8h; assay type: in vivo, human; conditions: human, urine; after oral dosing of LED-E; inferred from urinary excretion
VALUE TYPE: bioavailability

Qu. Return the recorded bioavailability value; entry: CCC(=O)N[C@H]1Cc2cccc(C(=O)O)c2OB1O
Ans. ≥ 68%

* * *

assay: Drug-drug interaction, single dose CTB 400 mg + LED-E 500 mg, cross-over (VNRX-7145-102 Part 1); conditions: human, plasma, oral
VALUE TYPE: AUC(0-inf) (ng·h/mL)
Please respond with the number in ng·h/mL and leave the unit unwritten.

Qu. Return value of AUC(0-inf) for input CCC(=O)N[C@H]1Cc2cccc(C(=O)OCOC(=O)C(CC)CC)c2OB1O , no commentary.
Ans. 1070

* * *

experiment: Urinary recovery on Day 10 after multiple doses of CTB + LED-E q8h (VNRX-7145-102 Part 3); conditions: human, urine, oral, CLr, Day 10, CTB 400 mg + LED-E 300 mg q8h; geometric mean (geometric CV %)
For each entry below, report its CL renal value.
Reply numerically in mL/min, unit not repeated.

Qu. Specify measured CL renal for CCC(=O)N[C@H]1Cc2cccc(C(=O)OCOC(=O)C(CC)CC)c2OB1O .
Ans. 0.402

Qu. Indicate the recorded CL renal value for this compound: CCC(=O)N[C@H]1Cc2cccc(C(=O)O)c2OB1O
Ans. 85.8

* * *

assay: Plasma pharmacokinetics on Day 10 after multiple doses of LED-E q8h (VNRX-7145-101 Part 2, VNRX-7145-102 Part 2); assay type: in vivo, human; details: human, oral; Day 10, LED-E 500 mg q8h; plasma; geometric mean (CV %); read-out: Vz/F
VALUE TYPE: Vd/F (L)
State the answer as a number, implicitly in L.

Qu. Write down Vd/F measured for item CCC(=O)N[C@H]1Cc2cccc(C(=O)OCOC(=O)C(CC)CC)c2OB1O [Ledaborbactam etzadroxil]
Ans. 6290

* * *

Could you please report measured Cmax for the items listed next?
assay: Plasma pharmacokinetics on Day 10 after multiple doses of CTB + LED-E q8h (VNRX-7145-102 Part 3); settings: human, oral, Cmax, Day 10, CTB 400 mg + LED-E 300 mg q8h, geometric mean (CV %)
The response must be a number in ng/mL with no trailing unit.

Qu. Identify the reported Cmax for the following entry. CCC(=O)N[C@H]1Cc2cccc(C(=O)OCOC(=O)C(CC)CC)c2OB1O [Ledaborbactam etzadroxil]
Ans. 467

Qu. Retrieve Cmax measured for CCC(=O)N[C@H]1Cc2cccc(C(=O)O)c2OB1O [Ledaborbactam, ledaborbactam] and print it.
Ans. 8470

* * *

test: Plasma pharmacokinetics after single ascending doses of LED-E (VNRX-7145-101 Part 1); format: in vivo; settings: human, oral, single dose LED-E 800 mg, geometric mean (CV %), read-out: t1/2 (converted)
So I've got a bunch of compounds here, and I need their half-life values.
Report the value in h with no unit label.

Qu. Fill in half-life for record CCC(=O)N[C@H]1Cc2cccc(C(=O)O)c2OB1O
Ans. 8.59

Qu. Note down half-life recorded for CCC(=O)N[C@H]1Cc2cccc(C(=O)OCOC(=O)C(CC)CC)c2OB1O
Ans. 3.37

* * *

assay: Plasma pharmacokinetics on Day 10 after multiple doses of CTB + LED-E q8h (VNRX-7145-102 Part 3); conditions: human, oral, AUCtau, Day 10, CTB 400 mg + LED-E 500 mg q8h, geometric mean (CV %)
VALUE TYPE: AUC (ng·h/mL)
Expressed in ng·h/mL, but write only the number.

Qu. Answer with the recorded AUC of CCC(=O)N[C@H]1Cc2cccc(C(=O)O)c2OB1O only.
Ans. 62200

Qu. Quick one: give measured AUC for CCC(=O)N[C@H]1Cc2cccc(C(=O)OCOC(=O)C(CC)CC)c2OB1O
Ans. 1090
